Measured melting point, listed per entry for reference.

Solved entries:
Q) I am curious: what melting point value has been reported for `CCc1c(N)nc(-c2ccc(C(F)(F)F)cc2)nc1C(=O)OC` ?
A) 123 to 124 °C

Q) # melting point lookup, item `CC(=O)N(C1=C(Cl)C(=O)c2c(cnn2C)C1=O)C1CC1`
A) 171 °C

Q) Returns the measured melting point for the input molecule. Input: `CCOC(=O)COc1ccc(C(=O)Nc2ccccc2Oc2cccc(-c3nnn[nH]3)c2)cc1`
A) 165 to 166 °C

Q) Look up melting point for this molecule: CC1(C)COP(=O)(O)OC1c1ccc2ccccc2c1 (stereo unspecified)
A) 237 to 238 °C

Q) # input molecule: `COc1cccc2cc(C(=O)c3ccc(Cl)c([N+](=O)[O-])c3)oc12` ; wanted: its melting point
A) 136 °C

Others:
Q) What measured melting point goes with `O=C(Nc1cccc2ccccc12)OCc1ccc(CO)cc1` ?
A) 158 to 159 °C

Q) Reported melting point, molecule `CON=Cc1sc(-c2ccc(O)cc2C)c(C)c1-c1ccc(O)c(F)c1` : ____
A) 172 to 177 °C
